# TESTED TARGET: Aβ40 (amyloid beta 40) fibrils (Homo sapiens, UniProt P05067)
# Construct: Aβ40 fibrils
# Sequence (P05067 672-711 limits assumed): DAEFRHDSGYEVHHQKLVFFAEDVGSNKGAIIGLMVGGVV
# EXPERIMENT: fluorescence titration of […] probe with fibrils
MEASURED ENDPOINT: pKd
Expect pKd as a plain number equal to -log10 of the molar concentration.

State the recorded pKd for this entry: CN(C)c1ccc(-c2ccc3cc(-c4nc5ccccc5s4)c(=N)oc3c2)cc1 5.20

Just for reference, paper PMC8159352 is where these values come from.
